Molecular target: T1, Human GPR7 (human, UniProt P48145 1-328)
T1 construct: Full-length receptor expressed in CHO dhfr- cells; also called Human GPR7 receptor; GPR7 receptor
T1 sequence: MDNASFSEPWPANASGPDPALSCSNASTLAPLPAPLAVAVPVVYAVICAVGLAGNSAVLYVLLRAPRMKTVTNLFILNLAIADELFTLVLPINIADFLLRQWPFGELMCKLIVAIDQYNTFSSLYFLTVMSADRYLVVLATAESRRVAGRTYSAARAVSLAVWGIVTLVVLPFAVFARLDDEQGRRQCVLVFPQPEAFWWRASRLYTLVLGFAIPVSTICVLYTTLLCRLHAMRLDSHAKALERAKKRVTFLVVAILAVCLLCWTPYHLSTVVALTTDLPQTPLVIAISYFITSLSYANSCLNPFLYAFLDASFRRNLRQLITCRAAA
Assay: competition with [125I-Tyr10]-hGPR8L(1-23), membrane fraction of GPR7 expressing CHO cells
pIC50: −log10 of the molar value. No end group written: not given here.

- binder: "Ac-YKHVASPRYHTVGRAAGLLMGL (also called Ac-hGPR8L(2-23)) [[N-Acetyl-Tyr^2]-Human GPR8 ligand (2-23)]"
  pIC50: 6.24
- binder: "RYHTVGRAAGLLMGL (also called hGPR8L(9-23)) [Human GPR8 ligand (9-23)]"
  pIC50: 5.66
- binder: "WYKHVASPRYHTVGRAAGLL (also called hGPR8L(1-20)) [Human GPR8 ligand (1-20)]"
  pIC50: 10.03
